# System: Aspergillus oryzae
# assayExplanation: Antifungal activity against Aspergillus oryzae 1-Murasaki-1 after 24 hrs by twofold serial dilution method
# Assay type: functional
# conditionsUsed: 1-Murasaki-1, 24 h
assayMetric: MIC (mg/L)
One number for each entry, in mg/L.

Please review the following examples before continuing.
- structureNotation: "CCCCCCCCCCCCNC(=O)[C@H]1CC(=O)N[C@H](CO)C(=O)N[C@H](Cc2ccc(O)cc2)C(=O)N[C@H](CC(N)=O)C(=O)NCC(=O)N[C@@H](CC(N)=O)C(=O)N[C@@H](CO)C(=O)N[C@@H](CC(N)=O)C(=O)N1"
  readoutValue: 50
- structureNotation: "CCCCCCCCCCCCNC(=O)[C@@H]1CC(=O)N[C@H](CO)C(=O)N[C@H](Cc2ccc(O)cc2)C(=O)N[C@H](CC(N)=O)C(=O)NCC(=O)N[C@@H](CC(N)=O)C(=O)N[C@@H](CO)C(=O)N[C@@H](CC(N)=O)C(=O)N1"
  readoutValue: 50
- structureNotation: "CCCCCCCCCCCCNC(=O)[C@H]1CC(=O)N[C@H](CO)C(=O)N[C@H](Cc2ccc(O)cc2)C(=O)N[C@H](CC(N)=O)C(=O)NCC(=O)N[C@H](CC(N)=O)C(=O)N[C@H](CO)C(=O)N[C@H](CC(N)=O)C(=O)N1"
  readoutValue: 200

Requested field: MIC. Item: CCCCCCCCCCCCNC(=O)[C@H]1CC(=O)N[C@H](CO)C(=O)N[C@H](Cc2ccc(O)cc2)C(=O)N[C@H](CC(N)=O)C(=O)NCC(=O)N[C@H](CC(N)=O)C(=O)N[C@@H](CO)C(=O)N[C@H](CC(N)=O)C(=O)N1
200
